The origin of these recorded values is PubChem BioAssay (NCATS).

- assay.text: qHTS Screen of the MIPE 4.0 Collection Against Ewings Sarcoma (TC71) (AID 1259253); note: potency is the fitted concentration of half-maximal effect; nearly all actives have a fitted effect of over 40% in size
- condition: TC71 Ewing sarcoma viability, CellTiter-Glo, 48 h; series mostly up to 45.8 µM
Inconclusive results are not listed. The source made the active and inactive calls. Calls come from the whole dose curve; as a rule, active = well fitted inhibition curve with a large enough effect; inconclusive = small, poorly fitted or top-dose-only effect; inactive = no such curve, though single readings can be large or run the other way.

[
  {
    "molecule": "C=C[C@@H]1CN2CCC1C[C@@H]2C(O)c1ccnc2ccc(OC)cc12 (some centres not stated)",
    "Potency": "4.18 µM (active)"
  },
  {
    "molecule": "CCOC(=O)[C@H](CCc1ccccc1)N[C@@H](C)C(=O)N1CCCC1C(=O)O (some centres not stated)",
    "Potency": "16.6 µM (active)"
  },
  {
    "molecule": "CC(C)C[C@H](NC(=O)c1cc2ccccc2s1)C(=O)N1CCN(C(=O)[C@H](CO)NS(=O)(=O)c2ccc(Cl)cc2Cl)CC1",
    "Potency": "23.5 µM (active)"
  },
  {
    "molecule": "Cc1cc2nc3c(=O)[nH]c(=O)nc-3n(CC(O)C(O)C(O)CO)c2cc1C (configuration not stated)",
    "Potency": "26.4 µM (active)"
  },
  {
    "molecule": "CCCCCCCCCCCCCCCC(=O)O[C@H]1[C@@H](O)[C@@H](O)[C@@H]([C@H](NC(=O)[C@@H]2C[C@@H](CCC)CN2C)[C@H](C)Cl)O[C@@H]1SC",
    "Potency": "13.2 µM (active)"
  },
  {
    "molecule": "O=C(CCCN1CCN(c2ccc(F)cc2)CC1)NC1c2ccccc2CSc2ccccc21 (configuration not stated)",
    "Potency": "16.6 µM (active)"
  }
]

====

- Tested on: HEK293
- assay.text: Cytotoxic Profiling of Annotated Libraries Using Quantitative High-Throughput Screening (AID 1296008); note: nearly all actives have a fitted effect of over 60% in size
- condition: Five cell lines viability, CellTiter-Glo ATP luminescence, 48-72 h
Results filed as inconclusive are left out. Activity calls are given as the source filed them. Calls come from the whole dose curve; as a rule, active = well fitted inhibition curve with a large enough effect; inconclusive = small, poorly fitted or top-dose-only effect; inactive = flat fitted curve, though single readings scatter.
Classes used: 1 (active), -1 (inactive)

[
  {
    "compound": "C[C@@H](N)c1ccc(C(=O)Nc2ccnc3[nH]ccc23)cc1",
    "class": 1
  },
  {
    "compound": "COc1cc2nccc(Oc3ccc(NC(=O)Nc4cc(C)on4)c(Cl)c3)c2cc1OC",
    "class": 1
  },
  {
    "compound": "C[C@H](c1ccc(F)cc1CCCC(=O)O)N(c1cc(F)ccc1F)S(=O)(=O)c1ccc(Cl)cc1",
    "class": -1
  },
  {
    "compound": "CN1CCN(c2cccc(Nc3nc4c(-c5ccc(S(C)(=O)=O)cc5)cccn4n3)c2)CC1",
    "class": 1
  }
]

====

Readings of activity, negative = cell killing for the listed compounds
- assay.text: Drug repurposing screens with cells derived from glioblastoma tumor samples (AID 1345199); note: % is set by controls: 0 for no effect and ±100 for the full control effect; nearly all actives have a fitted effect of over 40% in size
- condition: GBM patient neurospheres viability, ATP luminescence, 48 h; at 45.9 µM (top of the series); tumour line B
Records with an inconclusive call do not appear.

[
  {
    "compound": "CCCCC(F)(F)[C@@]1(O)CC[C@H]2[C@H](CC(=O)[C@@H]2CCCCCCC(=O)O)O1",
    "activity, negative = cell killing / %": -4.88
  },
  {
    "compound": "O=C(O)c1nc(=O)[nH]c(=O)[nH]1",
    "activity, negative = cell killing / %": 0.794
  },
  {
    "compound": "CN1CCN2c3ncccc3Cc3ccccc3C2C1 (configuration not stated)",
    "activity, negative = cell killing / %": -0.787
  },
  {
    "compound": "O=C(Nc1cccc2c(=O)cc(-c3nn[nH]n3)oc12)c1ccc(OCCCCc2ccccc2)cc1",
    "activity, negative = cell killing / %": 1.64
  },
  {
    "compound": "COc1cc2c(cc1OC)CC(=O)N(CCCN(C)C[C@H]1Cc3cc(OC)c(OC)cc31)CC2",
    "activity, negative = cell killing / %": -14.4
  },
  {
    "compound": "CC[C@H]1OC(=O)[C@H](C)[C@@H](O[C@H]2C[C@@](C)(OC)[C@@H](O)[C@H](C)O2)[C@H](C)[C@@H](O[C@@H]2O[C@H](C)C[C@H](N(C)C)[C@H]2O)[C@](C)(O)C[C@H](C)C(=NOCOCCOC)[C@H](C)[C@@H](O)[C@]1(C)O",
    "activity, negative = cell killing / %": -8.15
  },
  {
    "compound": "N#Cc1c(N(CC(=O)O)CC(=O)O)sc(C(=O)O)c1CC(=O)O",
    "activity, negative = cell killing / %": -0.252
  }
]
